test system: cryo-preserved hepatocytes; test: Hepatocyte stability assay, mouse; type: in vitro ADME; conditions: mouse, hepatocytes
Recorded Clint for the following molecules
Form entry: value (μL min^−1 10^−6 cells) — number only.

>>> df
                            compound_string  measurement_type       units_of_measure  experimental_result
0  C=C(CC(=O)NC1(c2ccc(C(F)(F)F)cc2)CCCC1)C(=O)O             Clint  μL min^−1 10^−6 cells                    4

Here is the next item to consider.
// field: Clint; key: C=C(CC(=O)N[C@@H](C)c1ccc(C(F)(F)F)cn1)C(=O)OC1CCN(S(C)(=O)=O)CC1 ; value = 34
